- System: A549
- PROTOCOL DESCRIPTION: Cytotoxicity against human A549 cells after 3 days by MTT assay
- Type: functional, cell-based
- ASSAY CONTEXT: Homo sapiens, A549, 72 h; read-out: IC50
pIC50: −log10 of the molar value.
Threshold rule: pIC50 greater than or equal to 5 is Condition met; below that, Condition not met.

Before answering, review these 5 worked examples.
CCc1c2c(nc3ccc(OC(=O)N4CCC(N5CCCCC5)CC4)cc13)-c1cc3c(c(=O)n1C2)COC(=O)[C@]3(O)CC    Condition met
CC[C@@]1(O)C(=O)OCc2c1cc1n(c2=O)Cc2cc3ccccc3nc2-1    Condition met
COc1ccc(C(=O)n2c3c(c4ccccc42)CCN2C(=O)c4ccccc4N(C)C32)cc1 (stereo not drawn)    Condition not met
CN1c2ccccc2C(=O)N2CCc3c(n(C(=O)c4ccc(F)cc4)c4ccccc34)C21 (stereo not drawn)    Condition met
CCCCCCn1c2c(c3ccccc31)CCN1C(=O)c3ccccc3N(C)C21 (stereo not drawn)    Condition not met

Is reported pIC50 greater than or equal to 5 here: CCCNC(=O)Cn1c2ccccc2[n+]2nc3c(cc12)-c1cccc2cccc-3c12
Condition not met

###

- Test system: A549
- PROTOCOL DESCRIPTION: Cytotoxicity against human A549 cells after 3 days by MTT assay
- Type: functional, cell-based
- ASSAY CONTEXT: Homo sapiens, A549, 72 h; read-out: IC50
# IC50 annotations
Write it as a number; the unit µM goes unstated.

Consider the reported IC50 for these molecules:
Cc1ccc(C(=O)n2c3c(c4ccccc42)CCN2C(=O)c4ccccc4N(C)C32)cc1 (centres undefined)    3
O=S(=O)(c1ccccc1)c1cc2c(O)c3c(ccc4cccnc43)c(O)c2c2ncccc12    120
CN1c2ccccc2C(=O)N2CCc3c(n(C(=O)c4cccc(Cl)c4)c4ccccc34)C21 (centres undefined)    2.9
CCOC(=O)n1c2c(c3ccccc31)CCN1C(=O)c3ccccc3N(C)C21 (centres undefined)    130
CN1c2ccccc2C(=O)N2CCc3c(n(CC(=O)O)c4ccccc34)C21 (centres undefined)    72
CN1c2ccccc2C(=O)N2CCc3c(n(Cc4ccccc4)c4ccccc34)C21 (centres undefined)    55
Cc1ccc(S(=O)(=O)c2cc3c(c4nsnc24)C(=O)c2ccccc2C3=O)cc1    0.5
CN1c2ccccc2C(=O)N2CCc3c(n(C(=O)c4ccc(Cl)cc4)c4ccccc34)C21 (centres undefined)    0.86

Consider the molecule shown here: CN1c2ccccc2C(=O)N2CCc3c(n(C(=O)c4ccc(Cl)cc4Cl)c4ccccc34)C21 (centres undefined) What is its recorded IC50?
5.3

###

# log10(IC50) annotations
- System: MDA-MB-435
- PROTOCOL DESCRIPTION: Cytotoxicity against human MDA-MB-435 cells after 3 days by MTT assay
- Format: functional, cell-based
- ASSAY CONTEXT: Homo sapiens, MDA-MB-435, 72 h; read-out: IC50
Values are log10 of IC50 in µM.

Consider the reported log10(IC50) for these compounds:
Cc1ccccc1C(=O)n1c2c(c3ccccc31)CCN1C(=O)c3ccccc3N(C)C21 (stereo not given)    -0.82
CN1c2ccccc2C(=O)N2CCc3c(n(CC#N)c4ccccc34)C21 (stereo not given)    2.30
CN1c2ccccc2C(=O)N2CCc3c(n(C(=O)c4ccc(Cl)cc4Cl)c4ccccc34)C21 (stereo not given)    -0.41
CN1c2ccccc2C(=O)N2CCc3c(n(Cc4ccccc4)c4ccccc34)C21 (stereo not given)    2.04
Cc1cc2nc3s/c(=C4\C(=O)N(CC(=O)O)c5ccccc54)c(=O)n3c2cc1C    2.23
CN1c2ccccc2C(=O)N2CCc3c(n(CC(=O)O)c4ccccc34)C21 (stereo not given)    1.11

Consider the compound shown here: CC[C@@]1(O)C(=O)OCc2c1cc1n(c2=O)Cc2cc3ccccc3nc2-1 What is its recorded log10(IC50)?
-0.15

Consider the compound shown here: CCCCCCn1c2c(c3ccccc31)CCN1C(=O)c3ccccc3N(C)C21 (stereo not given) What is its recorded log10(IC50)?
2.04

Consider the compound shown here: CCCNC(=O)Cn1c2ccccc2[n+]2nc3c(cc12)-c1cccc2cccc-3c12 What is its recorded log10(IC50)?
1.89

Consider the compound shown here: CN1c2ccccc2C(=O)N2CCc3c(n(C(=O)c4ccccc4Cl)c4ccccc34)C21 (stereo not given) What is its recorded log10(IC50)?
-0.74

Reference for the values: ChEMBL document CHEMBL1275352
